Target desc: Glycogen synthase kinase-3 beta (Homo sapiens)
Experimental protocol: Inhibition of GSK3-beta at 10 uM by HTRF assay
Quantity name: inhibition

>>> print(df.to_string())
                         compound_string                               target_desc  result
0  O=C(Nc1ccc2ccccc2n1)c1nscc1NCc1ccncc1  Glycogen synthase kinase-3 beta (Homo sapiens)   < 30%

Sample "O=C(NCc1ccc2c(c1)OCO2)c1nscc1NCc1ccncc1" — what was its inhibition?
< 30%

// same read-out, input: "O=C(Nc1cccc(C(F)(F)F)c1)c1nscc1NCc1ccnc2ccccc12"
< 30%

###

Target desc: Vascular endothelial growth factor receptor 2 (Homo sapiens)
Sequence (P35968 whole entry): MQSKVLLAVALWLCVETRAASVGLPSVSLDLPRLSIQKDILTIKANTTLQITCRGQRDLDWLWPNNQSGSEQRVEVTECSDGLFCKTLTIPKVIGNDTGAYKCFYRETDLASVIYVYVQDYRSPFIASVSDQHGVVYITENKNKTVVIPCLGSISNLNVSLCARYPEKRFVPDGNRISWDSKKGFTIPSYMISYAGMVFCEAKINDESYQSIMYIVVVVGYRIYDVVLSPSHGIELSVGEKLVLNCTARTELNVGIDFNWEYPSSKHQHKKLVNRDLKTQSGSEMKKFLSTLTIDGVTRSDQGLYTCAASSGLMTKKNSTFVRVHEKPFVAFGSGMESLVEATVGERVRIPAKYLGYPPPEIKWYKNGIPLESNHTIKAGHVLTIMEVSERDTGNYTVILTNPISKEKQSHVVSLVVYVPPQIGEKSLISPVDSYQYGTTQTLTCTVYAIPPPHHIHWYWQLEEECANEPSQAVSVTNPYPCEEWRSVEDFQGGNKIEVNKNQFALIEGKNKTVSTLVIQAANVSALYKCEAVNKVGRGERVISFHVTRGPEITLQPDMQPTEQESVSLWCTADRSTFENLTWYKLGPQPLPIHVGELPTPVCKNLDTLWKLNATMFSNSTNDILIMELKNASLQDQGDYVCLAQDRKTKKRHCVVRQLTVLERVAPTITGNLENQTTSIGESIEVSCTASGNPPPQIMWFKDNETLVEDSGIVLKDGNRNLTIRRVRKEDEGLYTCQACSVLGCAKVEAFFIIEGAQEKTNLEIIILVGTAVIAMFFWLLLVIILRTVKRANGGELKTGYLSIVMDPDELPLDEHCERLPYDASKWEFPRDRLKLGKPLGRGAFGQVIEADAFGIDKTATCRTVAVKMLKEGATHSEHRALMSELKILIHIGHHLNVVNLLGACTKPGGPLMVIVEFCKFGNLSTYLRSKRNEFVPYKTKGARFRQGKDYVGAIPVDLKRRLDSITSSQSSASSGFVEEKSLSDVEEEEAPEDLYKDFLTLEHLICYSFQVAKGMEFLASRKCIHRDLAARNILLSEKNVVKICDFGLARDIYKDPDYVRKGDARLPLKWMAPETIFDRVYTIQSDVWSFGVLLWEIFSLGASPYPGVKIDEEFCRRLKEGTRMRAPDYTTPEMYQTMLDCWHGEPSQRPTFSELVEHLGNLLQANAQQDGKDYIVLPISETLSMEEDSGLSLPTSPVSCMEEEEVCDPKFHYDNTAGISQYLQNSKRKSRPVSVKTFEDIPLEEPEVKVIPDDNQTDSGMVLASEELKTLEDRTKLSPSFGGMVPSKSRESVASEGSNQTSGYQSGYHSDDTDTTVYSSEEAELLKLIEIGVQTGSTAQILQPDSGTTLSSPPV
Experimental protocol: Inhibition of VEGFR2 assessed as blockade of pGAT-biotin phosphorylation in presence of 2 uM ATP by HTRF assay
pIC50: −log10 of the molar value.
Quantity name: pIC50

                            compound_string  quantity_name  quantitative_result
0       O=C(Nc1ccc(Br)cc1)c1nscc1NCc1ccncc1          pIC50                 6.64
1   O=C(Nc1ccc(Cl)c(Cl)c1)c1nscc1NCc1ccncc1          pIC50                 6.17
2  O=C(Nc1cccc(OC(F)(F)F)c1)c1nscc1NCc1ccncc1          pIC50                 7.48
3  O=C(Nc1cccc(C(F)(F)F)c1)c1nscc1NCc1ccncc1          pIC50                 7.39
4     O=C(Nc1ccc2ccccc2n1)c1nscc1NCc1ccncc1          pIC50                 6.36
5  O=C(Nc1ccc(C(F)(F)F)c(Cl)c1)c1nscc1NCc1ccncc1          pIC50                 6.05

[A] O=C(NCc1ccc2c(c1)OCO2)c1nscc1NCc1ccncc1
[B] O=C(Nc1cccc(Br)c1)c1nscc1NCc1ccncc1
[C] O=C(Nc1ccc(Cl)c(C(F)(F)F)c1)c1nscc1NCc1ccncc1
[D] Cc1ccc(NC(=O)c2nscc2NCc2ccncc2)cc1C(F)(F)F
Sort the 4 molecules by pIC50; largest first, smallest last. To answer, write out the labels according to the requested order.
B, D, C, A
(B: 7.57, D: 7.37, C: 6.64, A: 6.19)
